- Test system: MS2 coat protein
- PROCEDURE_SUMMARY: apparent KD of MS2 coat protein, switch OFF state (with FMN for OFF switches, without FMN for ON switches); designed switch direction (-1 OFF switch, 1 ON switch): -1; higher = weaker reporter binding
- TEST_PARAMETERS: FMN input: 0 or 200 uM; Eterna round: R93 (includes R88 designs)
MEASURED_PROPERTY: apparent KD of MS2 coat protein (nM)

| RESIDUE_CODES | MEASURED_NUMBER |
| --- | --- |
| GGAAAACAUGAGGAUCACCCAUGUAAGGAUAUGCAAAAAAGGAUAUAGAAGGAAAAAAGCAGAAGGUACAAAGG [salish99-ex1-23] | 69.8 |
| AACAGUACAGGAUAUACAUGAGGAUCACCCAUGUGAGAGAAAUAAAACAAAAAUAAAAGUAGAAGGGUACUGAA [Mat - Exclusion 3 - Eli mod - D67] | 36 |
| GAAAACAGAGGAUAUACAAAAUUGACACGAAAGGUGCAAAAACAUGAGGAUCACCCAUGUAGAAGGCUGAAGAA [Meechl MS2 Ex2 3] | 21.1 |

----------
Listed here are sequences together with their documented apparent KD of MS2 coat protein.
- System: MS2 coat protein
- PROCEDURE_SUMMARY: apparent KD of MS2 coat protein; higher = weaker reporter binding
- TEST_PARAMETERS: Eterna round: R107; input ligand: arginine 13.2 mM
MEASURED_PROPERTY: apparent KD of MS2 coat protein (nM)

| RESIDUE_CODES | MEASURED_NUMBER |
| --- | --- |
| UAAUAAGUGCCGGUUCUCAGAUCCUCAUGUCGAGGACCGGUACGGCCGCCACUCGAAACAUGAGGAUCACCCAUGUAAUAAUAAU [#08 Exclusion Tryptophan A] | 47.8 |
| UAAAUACAUGAGGAUCACCCAUGUUUGGAUACCAGAUAUGACAUUAUCCCUUGGCAGCCAUUCGUUCCAAAUGCUAUUGUGAAGG [theeternabot_sameState_MS2_Theo_A_26] | 20.6 |
| AUUAACAUGAGGAUCACCCAUGUGGCCCACCGAGGACCGGUACGGCCGCCACUCGUCGGAAAGGCUAAAUUUAUGAAGUCCAAAA [theeternabot_sameState_MS2_Trp_A_40] | 18.6 |

----------
- System: K4 kissing-loop RNA reporter;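 further: bound reporter read as fluorescence of individual clusters on recovered sequencing chips by microscopy, with normalized cluster intensities fitted with a binding model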
- PROCEDURE_SUMMARY: apparent KD of K4 kissing-loop reporter; higher = weaker reporter binding
- TEST_PARAMETERS: Eterna round: R107; input ligand: arginine 13.2 mM
MEASURED_PROPERTY: apparent KD of K4 kissing-loop reporter (nM)

| RESIDUE_CODES | MEASURED_NUMBER |
| --- | --- |
| UCCUACGAGGUAACGUGGAUAUCUCGUUGCAAGGAUAUCUGGAAACAGAGAAGGUGCAACAUUAUCGGCAGUGAUGUUGCUGACC | 242 |
| AAGAGCCUCAAGAGGCAGUAUCUGCCUCAACGAGGACCGGUACGGCCGCCACUCGAAUAAUAGAGUGAUGUUCUAAGAGGCUCAA [AK8 SS Tryptophan A] | 558 |
| UGACUGGAUGGAAGGAGCGCUAAACUCCUAGUGAUGUUAGGGAUACGAGGCAAAGCCUCGAAGCAGGUAGGUCGCCAUCUAGUCU [FiskerMod 21 - Jieux - Same State - Arginine B] | 123 |
| CUUAGGAGUGGUGUUGAUUAGGGAGCGGAAGGAGCGCCAAUGAUGGCAGGUAGGUCGCCGGAAUAUAGUGAUGUUAUAUAGAGGG [ExArgA.Q] | 252 |
| UGUGCCAAAUGUGAUACCAGCAUCCUGCAGUGAUGUUGCAUACGAGUGAUGUUCGUCCGAUGCCCUUGGCAGCGCAGUAGUUUGA [Same State Theophylline B GF 26] | 263 |
| UUGACCUACUCAGGAUAUCCGCAGUGAUGUUGCGGUUGGCCUGAGCGGCAUGAAAAUCUUACUACAGGAGAAGGGAGAGGGUUAC [Atusgeis] | 85.6 |
| UGUCAUGGAAACAUGAACGUUAAAAUAAAUCGAGGACCGGUACGGCCGCCACUCGUAUAGCGGUCAGUGAUGUUGACUGUAGUAA [KL-SSTryp-A form2 sub8] | 116 |
| CCUAUCUCAUACGAUACCAGUCAAUGAUCUUUGAUCAAUGCCAUCACCGAGUGAUGUUCGGACCCUUGGCAGCGUAUGAGAUAGG [whbob_Ex_Theo_B_sa103] | 225 |
| CCAUCGCUGUUCGAUACCAGUCAUUUUUUAUUUUAUUUUUUUUUUGGAGUGAUGUUCCAAGACCCUUGGCAGCGGAUAGUGAUGG [whbob_SS_Theo_B_th80] | 143 |
| AGAUGUUUAGCUCAAAGAACGAAAAUGGAAGGAGCGUGCGAAAGCACAGGUAGGUCGCCAGUGAUGUUGGAACCUGAGCAUCAAA [#SwitchBubble 16 #K4Late] | 274 |
| GGAUCUUCCAGUGAUGUUGGUUAAUAUAUCAAGGAUAUGACGAAAGUCAGAAGGUGAAAGACUGGACAAAGUCCAGUCGGAUCCA [KL-SSFMN-A19] | 573 |
| CAUACGCAUGGAGGAUAUGAGAUUACUCAUGUCAUUUAAUAUUCUCAGUGAUGUUGAGAUUUAGGCUCAGAAGGCCAUGUGUAUG [Ex FMN B 17] | 514 |
| AUUUAAUUAACUGAUACCAGACUUUUUGUUUUGAUAAUUACUAGUGAUGUUAGUGUUUCUGUCCCUUGGCAGCAGUAUCUACUUA [JR_ExcTheophyB_Sub017] | 177 |
| AAACAUCACUGGGAGUGAUGUUCUCAGUGACGAGGACCGGUACGGCCGCCACUCGCGAGAGAUAUAGUCUAGUAAUGACUGCAUU [Excl Tryptophan A V9] | 274 |
| AAGCGUAAAAUGGCGGACAUACUGCUCCCACGAGGACCGGUACGGCCGCCACUCGAGUGCGGCAGUGAUGUUGCCGCCUUAGCGU [KL-XTryp-A20] | 81.3 |
| GAGAUGCACCAGUCUUAACGUGACUUAUCCCGAGGACCGGUACGGCCGCCACUCGCGUACUACUAGUGAUGUUGGUCAGUAUGAG [theeternabot_sameState_KL_Trp_A_26] | 185 |
| CUCUUCUUUCUUUUAGUGAUGUUAAAUUAGCGAGGACCGGUACGGCCGCCACUCGUAUAGCUGGAAUGACUGUGCGAGGGUUUGU | 514 |
| AUGGACUCUUCGGAGUCCGCCUUAAGGGAUACCAGUGAUGUUGGUCACCCUUGGCAGCCUAGAAAGGAAGCCACCAAAGGUGGCA [Omei v1 mod #OpenEnded #Sliding] | 114 |
| UGACUGGACUGAAGGAGCGAGCGAGACAAAGUCUCGAAAAUUCAGUGAUGUUGAUAUAUAACUCAGGUAGGUCGCAGUCUAGUCU [ArgBS 5 #SwitchBubble #StaticStem] | 433 |
| GGGUGUAGUGCGGCCGCCACUGUGAUAGUAGAAGAGUAUAGUGAUGUUAUAUAGGAUUAAUAGAAUAGGACCGGGCAUUAGACUU [#24 K4 Tryptophan B Same State] | 340 |
| UUAGAUCUUCUAGAUACCAGUCUGUGUAUCAAUGAUACACUUGACUGAGUGAUGUUCAGAGGCCCUUGGCAGCUAGAAGAUCAUU [AK1 SS Theophylline B] | 473 |
| UAAUAUCCGUCGGCCGCCACUCACUAGUGAUGUUAGAGGAGUGAUGUUCCACGAGUGAUGUUCGAGAGGACCGGGACGGACGAUG [7th] | 60 |
| ACCACCUGUCUGGAUACCAGUCUUCGAGUGAUGUUGGAAGUUAGCCGGUUCUAUUACCUAGACCCUUGGCAGCCAGGAAUUAUAG [theeternabot_exclusion_KL_Theo_B_17] | 861 |
